- TESTED_TARGET: CYP2D6 (Homo sapiens, UniProt P10635)
- Sequence (P10635 whole entry): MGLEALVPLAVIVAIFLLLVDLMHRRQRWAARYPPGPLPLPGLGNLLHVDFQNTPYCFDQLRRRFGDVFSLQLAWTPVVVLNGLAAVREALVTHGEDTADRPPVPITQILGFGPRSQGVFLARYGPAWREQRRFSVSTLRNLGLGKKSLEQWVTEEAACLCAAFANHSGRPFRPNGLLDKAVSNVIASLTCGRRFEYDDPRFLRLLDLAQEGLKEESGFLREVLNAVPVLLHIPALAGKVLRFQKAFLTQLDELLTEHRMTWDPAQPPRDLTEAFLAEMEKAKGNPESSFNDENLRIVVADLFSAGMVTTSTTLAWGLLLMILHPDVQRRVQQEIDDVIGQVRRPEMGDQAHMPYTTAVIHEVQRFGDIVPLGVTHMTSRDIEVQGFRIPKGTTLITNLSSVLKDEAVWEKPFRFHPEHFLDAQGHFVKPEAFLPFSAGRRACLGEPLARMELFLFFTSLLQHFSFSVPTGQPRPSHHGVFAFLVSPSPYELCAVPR
- ASSAY_SUMMARY: Cytochrome inhibition, fluorometric microtiter plate assay
- Format: in vitro ADME
- DETAILS: CYP2D6 cytochrome inhibition (IC50, concentrations in μM for 50% inhibition), human recombinant CYP2D6, substrate AMMC; compounds of the invention
- Method: The ability of drug in human to inhibit the catalytic activity of cytochrome P-450 isoforms was assayed using microtiter plate-based, fluorometric assays for the activities of the five human major CYP forms. […]
ENDPOINT_NAME: IC50

Examples with answers:
{"columns": ["MOLECULE", "RECORDED_MEASUREMENT"],
 "data": [
  ["c1cc(-c2ccc(OCCCN3CCCCC3)cc2)ccc1CCCN1CCCCC1", "2 µM"],
  ["C[C@@H]1C[C@@H](C)CN(CCCOc2ccc(C3=NCCCC3)cc2)C1 (relative stereo)", "> 100 µM"],
  ["C[C@H]1CCCN(CCCOc2ccc(-c3ccnc(O)c3)cc2)C1.O=C(O)C(=O)O", "> 10 µM"]
]}

Value of measured IC50 for the entry `O=C(O)C(=O)O.O=C(O)C(=O)O.c1cc(C2=NCCCC2)ccc1OCCCN1CCCCC1` : > 10 µM

Value of measured IC50 for the entry `C[C@H]1CCCN(CCCOc2ccc([C@H]3CC[C@H](O)CC3)cc2)C1` : > 10 µM

Value of measured IC50 for the entry `CN1CCC(CCOCc2ccc(OCCCN3CCCCC3)cc2)CC1` : > 10 µM

Value of measured IC50 for the entry `C=CCC(O)(CC=C)c1ccc(OCCCN2CCCCC2)cc1` : 8 µM

Value of measured IC50 for the entry C[C@@H]1C[C@@H](C)CN(CCCOc2ccc(C(C)(C)O)cc2)C1 (relative stereo) : > 10 µM
